# TARGET_SYSTEM: UniProtKB P04278
# Sequence (P04278 whole entry): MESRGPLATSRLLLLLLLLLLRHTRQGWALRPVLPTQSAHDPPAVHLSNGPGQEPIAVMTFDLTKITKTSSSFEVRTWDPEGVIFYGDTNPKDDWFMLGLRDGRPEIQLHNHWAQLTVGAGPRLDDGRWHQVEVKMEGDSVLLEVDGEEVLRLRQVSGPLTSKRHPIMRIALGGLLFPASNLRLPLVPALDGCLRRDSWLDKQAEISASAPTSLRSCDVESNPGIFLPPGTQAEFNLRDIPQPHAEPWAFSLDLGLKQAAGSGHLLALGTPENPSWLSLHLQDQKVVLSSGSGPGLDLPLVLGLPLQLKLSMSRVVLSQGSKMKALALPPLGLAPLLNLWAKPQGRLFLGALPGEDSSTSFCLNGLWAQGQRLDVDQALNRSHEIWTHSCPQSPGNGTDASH
For each of the compounds below, state its Kd.
Numbers only, in nM.

compound="C[C@]12CC[C@@H](O)C[C@@H]1CC[C@@H]1[C@@H]2CC[C@]2(C)C(=O)CC[C@@H]12 [ANDROSTERONE]" experimental_readout=Kd observed_value=70.8
compound="O=C1C[C@@H](c2ccc(O)cc2)Oc2cc(O)cc(O)c21 (stereo in doubt; 90) [NARINGENIN]" experimental_readout=Kd observed_value=955
compound="O=C1C[C@@H](c2ccc(O)cc2)Oc2cc(O)cc(O)c21 (stereo in doubt; 82) [NARINGENIN]" experimental_readout=Kd observed_value=28200
compound="C[C@]12CC[C@@H](O)C[C@@H]1CC[C@@H]1[C@@H]2CC[C@]2(C)[C@@H](O)CC[C@@H]12 [ANDROSTANDIOL]" experimental_readout=Kd observed_value=0.776
compound="C[C@]12CC[C@H]3[C@@H](CCC4=CC(=O)CC[C@@H]43)[C@@H]1CC[C@@H]2O [NANDROLONE]" experimental_readout=Kd observed_value=501

Give Kd for each of the items listed below.
1. C#C[C@]1(O)CC[C@H]2[C@@H]3CC[C@H]4CC(=O)CC[C@]4(C)[C@H]3CC[C@@]21C
2. CC1(O)CC[C@H]2[C@@H]3CC=C4CC(O)CC[C@]4(C)[C@H]3CC[C@@]21C (some centres not stated)

1. 0.182
2. 4.37

* * *

Quick note: these are Kd numbers for system: Sex hormone-binding globulin (Homo sapiens, UniProt P04278)
Give bare numbers, in µM.

molecule=C[C@]12CCc3c(ccc4cc(O)ccc34)[C@@H]1CCC2=O experimental_readout=Kd unit_abbreviation=µM observed_value=0.0024
molecule=C#C[C@]1(O)CC[C@H]2[C@@H]3CCC4=CC(=O)CC[C@@H]4[C@H]3CC[C@@]21C experimental_readout=Kd unit_abbreviation=µM observed_value=0.0107
molecule=C[C@]12CC[C@H]3[C@@H](CCC4=CC(=O)CC[C@@]43C)[C@@H]1C[C@@H](O)[C@@H]2O experimental_readout=Kd unit_abbreviation=µM observed_value=0.012
molecule="C[C@]12CC[C@@H]3c4ccc(OC(=O)c5ccccc5)cc4CC[C@H]3[C@@H]1CC[C@@H]2O [ESTRADIOL BENZOATE]" experimental_readout=Kd unit_abbreviation=µM observed_value=1.15
molecule=C[C@@H]1CC2=CC(=O)CC[C@]2(C)[C@@]2(F)CC[C@]3(C)[C@@H](O)CC[C@H]3[C@H]12 experimental_readout=Kd unit_abbreviation=µM observed_value=0.00309

Give Kd for each of the items listed below.
1. C[C@]12CCC(=O)C=C1CC[C@@H]1[C@@H]2CC[C@@]2(C)[C@H]1CC[C@]2(C)O
2. C[C@]12CC[C@@H](O)C[C@H]1CC[C@@H]1[C@@H]2CC[C@]2(C)C(=O)CC[C@@H]12
3. CC(=O)[C@@]1(O)CC[C@H]2[C@@H]3CC=C4C[C@@H](O)CC[C@]4(C)[C@H]3CC[C@@]21C

[0.00372, 0.708, 0.437]
